- method-notes: in vitro
- condition-notes: human, pH 7.4, Papp R3, EpiAirway tissues, apical dosing, DPBS pH 7.4, replicate R3
endpoint-label: Papp at 120 min
Your reply should be a number followed by the unit it is expressed in.

Request: Requested field: Papp at 120 min. Item: Cn1c(=O)c2c(ncn2C)n(C)c1=O
Result: 28.2 ×10⁻⁶ cm/s

---

- method-notes: in vitro
- condition-notes: human, pH 7.4, Papp R1, EpiAirway tissues, apical dosing, DPBS pH 7.4, 120 minutes, 37° C., replicate R1
endpoint-label: Papp at 120 min
Your reply should be a number followed by the unit it is expressed in.

Request: Requested field: Papp at 120 min. Item: Cn1c(=O)c2c(ncn2C)n(C)c1=O
Result: 30.9 ×10⁻⁶ cm/s

---

- method-notes: in vitro
- condition-notes: human, pH 7.4, Papp Average ± SD, EpiAirway tissues, apical dosing, DPBS pH 7.4; diphenhydramine 100 μM, atenolol 100 μM, caffeine 50 μM co-dosed
endpoint-label: Papp at 120 min (×10⁻⁶ cm/s)
Give the value in ×10⁻⁶ cm/s but do not write ×10⁻⁶ cm/s after it.

Request: Requested field: Papp at 120 min. Item: Cn1c(=O)c2c(ncn2C)n(C)c1=O
Result: 29.1

---

For each entry below, report its recovery at 120 min value.
- method-notes: in vitro
- condition-notes: human, pH 7.4
Give the value in % but do not write % after it.

Request: Requested field: recovery at 120 min. Item: CC(C)NCC(O)COc1ccc(CC(N)=O)cc1 (stereo not drawn)
Result: 98.5

Request: Thanks! And CN(C)CCOC(c1ccccc1)c1ccccc1 [Diphenhydramine] ?
Result: 103

Request: Thanks! And Cn1c(=O)c2c(ncn2C)n(C)c1=O ?
Result: 96.9

---

- method-notes: in vitro
- condition-notes: human, pH 7.4, Papp R2, EpiAirway tissues, apical dosing, DPBS pH 7.4, replicate R2
endpoint-label: Papp at 120 min (×10⁻⁶ cm/s)
Give the value in ×10⁻⁶ cm/s but do not write ×10⁻⁶ cm/s after it.

Request: Requested field: Papp at 120 min. Item: Cn1c(=O)c2c(ncn2C)n(C)c1=O
Result: 28.2
